# Test system: OVCAR-3 ovarian
# ASSAY TEXT: NCI tumour cell line growth inhibition, 48 h
MEASURED QUANTITY: GI50

>>> df
                                    compound              tgt   meas_value
 0  O=C1NC(=C(Cl)Cl)/C(=N/S(=O)(=O)N2CCCCC2)N1  OVCAR-3 ovarian      2090 nM
 1  CCOC(=O)C1=CCCC[C@H]1S(=O)(=O)Nc1ccc(F)cc1Cl  OVCAR-3 ovarian     23200 nM
 2  Oc1c(Cl)cc(Cl)c(Cl)c1CNCCNCc1c(O)c(Cl)cc(Cl)c1Cl  OVCAR-3 ovarian       502 nM
 3  Cc1nn(CNc2ccccc2C(F)(F)F)c(=S)n1/N=C/c1cccc2cccnc12  OVCAR-3 ovarian  > 100000 nM
 4     O=c1oc2ccc(I)cc2c(=O)n1-c1ccc(Br)cc1F  OVCAR-3 ovarian       511 nM
 5  CN[C@H]1CN(c2ccc3c(=O)c(C(=O)O)cn(-c4nccs4)c3n2)C[C@@H]1OC  OVCAR-3 ovarian      1820 nM
 6  CC(=O)O[C@@H]1C2CCC3C(CC[C@@]4(C)C3CC[C@@H]4C(C)N(C)C)[C@@]2(C)CC[C@@H]1NC(=O)C=C(C)C (stereo not given in full)  OVCAR-3 ovarian      2240 nM
 7  OC(CNc1ccnc2cc(Cl)ccc12)CNc1ccnc2cc(Cl)ccc12  OVCAR-3 ovarian      1810 nM
 8  CNC(=O)c1c(C)oc2cc(Oc3ncnc4cc(OC)c(OC)cc34)ccc12  OVCAR-3 ovarian  > 100000 nM
 9  CC(C)(C)C(=O)OCOP(=O)(NCc1ccccc1)C1CCCN(O)C1=O (stereo not given)  OVCAR-3 ovarian      1040 nM
10  Clc1c(Cl)[n+](Cc2ccc3ccccc3c2)cn1Cc1ccc2ccccc2c1  OVCAR-3 ovarian      1340 nM
11  O=c1c2c(nc3n1CCS3)[nH]c1cc([N+](=O)[O-])ccc12  OVCAR-3 ovarian     25500 nM
12  Cc1cnc2n1S(=O)(=O)c1cc(C(=O)Nc3cccc4nsnc34)c(Cl)cc1S2  OVCAR-3 ovarian     16200 nM
13  COc1cc2c(cc1OC(C)C)[C@H](c1ccc(Cl)cc1)N(c1ccc(N(C)CC3CCC(N4CCN(C)C(=O)C4)CC3)cc1)C(=O)C2 (stereo not given in full)  OVCAR-3 ovarian      2600 nM
14  CCc1ccc(Oc2c(-c3ccc(OCc4ccc(Cl)cc4)cc3O)n[nH]c2C(F)(F)F)cc1  OVCAR-3 ovarian      1780 nM
